// provenance: ChEMBL document CHEMBL1201862

test system: MOLT-4; experiment: NCI tumour cell line growth inhibition, 48 h
The source made the active and inactive calls. Rule as the data show it: active = GI50 up to about 1.1 µM and inactive = higher.
This section presents compounds with their documented GI50 values.

| compound | GI50 |
| --- | --- |
| Cc1cc(O)c2c(c1)OC1(C)CCC3C(C)(C)CCCC34COC2C14 (centres undefined) | 0.141 µM (active) |

Ask: Write down the reported GI50 of CCCN(CCC)c1cc2c(cc1F)c(=O)c(C(=O)O)cn2-c1ccc(N2CCN(C)CC2)cn1 , test system: MOLT-4.
Reply: 16.2 µM (inactive)

Ask: Write down the reported GI50 of COc1cccc2c1C(=O)C1=C(C2=O)C(O)CC(C)(C)O1 (centres undefined) , test system: MOLT-4.
Reply: 29 µM (inactive)

Ask: Write down the reported GI50 of CCCCS/C(=C(/C#N)C(N)=O)c1cc2c([nH]1)CCCC2 , test system: MOLT-4.
Reply: 10 µM (inactive)

Ask: Write down the reported GI50 of Cc1ccc([N+](=O)[O-])c2c(NCCNC(=O)c3cc(C(=O)NCCNc4ccnc5c(C)ccc([N+](=O)[O-])c45)n(C)n3)ccnc12 , test system: MOLT-4.
Reply: 31.7 µM (inactive)

Ask: Write down the reported GI50 of CN(C)CCCOCCn1c2c(c3ccccc31)CCCC2 , test system: MOLT-4.
Reply: 13.7 µM (inactive)

Ask: Write down the reported GI50 of CC(=O)OCC1OC(n2c(-c3ccccc3)c(C(C)=O)c(-c3cccc4ccccc34)c(C#N)c2=S)C(OC(C)=O)C(OC(C)=O)C1OC(C)=O (centres undefined) , test system: MOLT-4.
Reply: > 100 µM (inactive)

Ask: Write down the reported GI50 of CCOC(=O)c1sc2nc(SC)nc3c2c1NCN3c1ccc(F)c(F)c1 , test system: MOLT-4.
Reply: > 55.2 µM (inactive)

Ask: Write down the reported GI50 of NS(=O)(=O)c1nnc(NS(=O)(=O)c2ccc([N+](=O)[O-])cc2)s1 , test system: MOLT-4.
Reply: 26.3 µM (inactive)
